# target desc: cynomolgus monkey CD3 E&D complex protein (Sino Biological Inc., CT032-00323H) (cynomolgus monkey) (UniProt Q95LI5)
# Sequence (Q95LI5 22-117, chain 1 of 2): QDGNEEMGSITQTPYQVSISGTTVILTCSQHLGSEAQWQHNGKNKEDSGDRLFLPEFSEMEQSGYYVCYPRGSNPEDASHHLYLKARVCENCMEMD
# Sequence (Q95LI8 22-105, chain 2 of 2, further chain): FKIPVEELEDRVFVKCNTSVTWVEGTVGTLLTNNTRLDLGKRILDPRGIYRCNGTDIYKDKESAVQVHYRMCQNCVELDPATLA
# protocol text: SPR, antigen on chip
measurement label: kon (M⁻¹ s⁻¹)
API: value field is a number in M⁻¹ s⁻¹; no unit string.

SGN70-sp34.24HL (bispecific antibody, part only; not given: anti-CD70 Fab arm and Fc, not shown: another chain or arm of the molecule; a dimerising Fc or GST; large carriers; small tags and cut ends) scFv: EVQLVESGGGLVQPGGSLKLSCAASGFTFNTYAMNWVRQASGKGLEWVGRIRSKYNNYATYYADSVKDRFTISRDDSKSTLYLQMNSLKTEDTAVYYCARHGNFGQSYVSWFAYWGQGTTVTVSSGGGGSGGGGSGGGGSGGGGSQAVVTQEPSLTVSPGGTVTLTCRSSTGAVTTSNYANWVQQKPGQAPRGLIGGTNKRAPGVPARFSGSLLGDKAALTLLGAQPEDEAEYYCALWYSNLWVFGQGTKLTVL :: 169000

Would you kindly look at the next entry?
Prompt: Item under review: SGN70-sp34.97LH (bispecific antibody, part only; not given: anti-CD70 Fab arm and Fc, not shown: another chain or arm of the molecule; a dimerising Fc or GST) scFv: QAVVTQEPSLTVSPGGTVTLTCRSSTGAVTTSNYANWVQQKPGQAPRGLIGGTNKRAPGVPARFSGSLLGDKAALTLLGAQPEDEAEYYCALWYSNLWVFGQGTKLTVLGGGGSGGGGSGGGGSGGGGSEVQLVESGGGLVQPGGSLKLSCAASGFTFNTYAMNWVRQASGKGLEWVGRIRSKAGGYATYYADSVKDRFTISRDDSKSTLYLQMNSLKTEDTAVYYCARHGNFGQSYVSWFAYWGQGTTVTVSS . Reported kon?
Response: 63800
